Origin of measurements: PubChem BioAssay AID1996

Conditions: buffer; pH 7.4; 200.0 µM
Value Kind: solubility kinetic (µg/mL)
Provide only the numeric value, understood in µg/mL.

Please review the following examples before continuing.
# Molecule, solubility kinetic (µg/mL)
data = [
    ("CCCOc1ccc(C2Nc3cccc4cccc(c34)N2)cc1", 3.8),
    ("O=C(CCCC(=O)c1ccccc1)Nc1ccc(F)cc1", 4.9),
    ("COc1cccc(CNC(=S)Nc2ccc(Cl)cc2C)c1", 5.5),
    ("O=C(NC1CCCCCCC1)c1ccc(Br)o1", 37.2),
    ("Cc1cccc(C(=O)Nc2ccc3c(c2)nc(C)n3C)c1", 5.5),
    ("CC(=O)c1ccc(S(=O)(=O)NC2CCCCCCC2)cc1", 45.1),
    ("Clc1nssc1=Nc1ccccc1", 22.3),
    ("Cc1cc(C(=O)NCC2COc3ccccc3O2)c2ccccc2n1 (stereo not given)", 9.3),
]

# get_value(readout='solubility kinetic', item= "COc1ccc(Nc2nc(C)cc(C)c2C(N)=O)cc1OC" )
43.8

# get_value(readout='solubility kinetic', item= "Cc1cccc(NS(=O)(=O)c2ccc(C(=O)N3CCC3)cc2)c1C" )
50.8

# get_value(readout='solubility kinetic', item= "O=C(CN1C(=O)COc2ccccc21)Nc1ccccc1F" )
21.4

----------
Conditions: buffer; pH 7.4; 200.0 µM
Each entry below lists one item and its recorded solubility kinetic value.
Provide only the numeric value, understood in µg/mL.

Please review the following examples before continuing.
# Molecule, solubility kinetic / µg/mL
data = [
    ("O=C(CCc1nc(-c2ccccc2Cl)no1)NC1CCCC1", 23),
    ("COc1cccc(Nc2cc(C)c3ccccc3n2)c1", 8.7),
    ("Cc1cccn2cc(-c3ccc4c(c3)NC(=O)CO4)nc12", 7.9),
    ("Cc1c(/C=N/O)sc2ccccc12", 10.8),
    ("CCN1C(=O)c2cccc3c(Cl)ccc1c23", 7),
]

# get_value(readout='solubility kinetic', item= "O=C(CCCNC(=O)c1ccc(Cl)cc1)NCc1ccc(F)cc1" )
4.1

----------
Settings: buffer; pH 7.4; 200.0 µM
Threshold check on solubility kinetic: at or above 10 µg/mL gives Fulfilled, strictly below gives Not fulfilled.

Record "Cc1cccc(NC(=O)C2CCN(S(C)(=O)=O)CC2)c1C" ; criterion: solubility kinetic no lower than 10 µg/mL. Met?
Fulfilled

Record CCOc1ccc(NC(=O)C2CC(=O)N(Cc3ccco3)C2)cc1 (configuration not stated) ; criterion: solubility kinetic no lower than 10 µg/mL. Met?
Fulfilled

Record "CSc1ccc(CN(C)C(=O)c2cc(Cl)c3c(c2)OCCO3)cc1" ; criterion: solubility kinetic no lower than 10 µg/mL. Met?
Fulfilled

Record "Cc1nc(C)c(-c2csc(Nc3ncccc3C)n2)s1" ; criterion: solubility kinetic no lower than 10 µg/mL. Met?
Not fulfilled

Record "CCCCNC(=NCc1cccc(C(F)(F)F)c1)Nc1ccccc1" ; criterion: solubility kinetic no lower than 10 µg/mL. Met?
Fulfilled

Record "COCCNC(=S)N1CCN(c2nc3ccccc3s2)CC1" ; criterion: solubility kinetic no lower than 10 µg/mL. Met?
Fulfilled

Record "Cc1ccc(NC(=O)COC(=O)Cc2ccc(Br)cc2)cc1S(=O)(=O)N1CCOCC1" ; criterion: solubility kinetic no lower than 10 µg/mL. Met?
Fulfilled

Record "CCN(CC)C(=O)c1ccc(NC(=O)c2ccc3c(c2)NC(=O)CS3)cc1" ; criterion: solubility kinetic no lower than 10 µg/mL. Met?
Not fulfilled

----------
Details: buffer; pH 7.4; 200.0 µM
Value Kind: solubility kinetic (µg/mL)
Provide only the numeric value, understood in µg/mL.

Please review the following examples before continuing.
# Compound, Unit Spec, Quantitative Readout
measured = [
    ("CC(C)C(NC(=O)C1CCCCC1)C(=O)NCCc1ccccc1 (configuration not stated)", "µg/mL", 1.3),
    ("CCCOc1ccc(CN(C)c2ncnc(N)n2)cc1", "µg/mL", 13.5),
    ("Cc1onc(-c2ccccc2)c1C(=O)NC(C)CCc1ccccc1 (configuration not stated)", "µg/mL", 1.1),
    ("Cn1c(/C(C#N)=C/c2ccc(O)cc2)nc2ccccc21", "µg/mL", 5.5),
    ("Cl.OC1(C#CCN2CCCC2)CCCCC1", "µg/mL", 34.2),
]

Turning to the following compound.
# get_value(readout='solubility kinetic', item= "CCc1ccc(OCC(=O)O/N=C(\N)c2ccccn2)cc1" )
37.9

----------
Conditions: buffer; pH 7.4; 200.0 µM
Each entry below lists one item and its recorded log10 solubility kinetic value.
Could you please treat all values as log10 of solubility kinetic in µg/mL?

Please review the following examples before continuing.
# Molecule, log10 solubility kinetic
records = [
    ("O=C(Nc1nc(-c2ccccn2)cs1)Nc1ccc(F)cc1F", 0.38),
    ("O=C(COC(=O)c1ccc([N+](=O)[O-])o1)NC1CCCC1", 1.59),
]

# get_value(readout='log10 solubility kinetic', item= O=[N+]([O-])c1cc(C(F)(F)F)ccc1NCC1CCCO1 (configuration not stated) )
-0.22

# get_value(readout='log10 solubility kinetic', item= "Nc1ccccc1-n1c(=O)n(Cc2ccccc2F)c(=O)c2[nH]cnc21" )
1.54

# get_value(readout='log10 solubility kinetic', item= "CNC(=O)/C(C#N)=C/c1cn(CC(=O)OC)c2ccccc12" )
0.89

# get_value(readout='log10 solubility kinetic', item= "COc1ccc(/C=C/C(=O)Nc2ccc(C)c(S(=O)(=O)N3CCOCC3)c2)cc1" )
0.87

----------
Details: buffer; pH 7.4; 200.0 µM
Threshold check on solubility kinetic: at or above 50 µg/mL gives 1.0, strictly below gives 0.0.

Worked examples, 3 compounds total:
# Compound, Class Assignment
data = [
    ("COc1ccc(N2C(=O)CSC2c2ccccc2F)c(OC)c1 (configuration not stated)", 0.0),
    ("CC(C)(C)NC(=O)Cn1c(SCC(=O)NC2CCCC2)nc2ccccc21", 1.0),
    ("CCc1ccc(NS(=O)(=O)c2cccc3nsnc23)cc1", 0.0),
]

Here is another compound to look at.
Record "Cc1ccc(OCCn2c(=S)[nH]c3ccccc32)c(C(C)C)c1" ; criterion: solubility kinetic no lower than 50 µg/mL. Met?
0.0

----------
Details: buffer; pH 7.4; 200.0 µM
Value Kind: solubility kinetic (µg/mL)
Provide only the numeric value, understood in µg/mL.

# Compound, solubility kinetic / µg/mL
rows = [
    ("NC(=S)Nc1cc(Cl)ccc1Cl", 30.2),
]

# get_value(readout='solubility kinetic', item= "COc1ccc(Cl)cc1NC(=O)C1(c2cccs2)CCOCC1" )
21.7

# get_value(readout='solubility kinetic', item= "CN1CCN(S(=O)(=O)c2ccc(Cl)c3ccccc23)CC1" )
45.1

# get_value(readout='solubility kinetic', item= CC(O)c1nc2cc([N+](=O)[O-])ccc2n1Cc1ccccc1 (stereo not given) )
6.9

# get_value(readout='solubility kinetic', item= "Nc1ccc(C(=O)Nc2cccc3ncccc23)cc1" )
37.3

# get_value(readout='solubility kinetic', item= "NS(=O)(=O)c1ccc(SCc2ccccc2)nc1" )
10.4

# get_value(readout='solubility kinetic', item= "CN(C(=O)C1CCN(S(=O)(=O)c2ccccc2[N+](=O)[O-])CC1)C1CCCCC1" )
52.9

# get_value(readout='solubility kinetic', item= "CCOC(=O)c1ccc(NC(=S)N2CCN(c3ccccn3)CC2)cc1" )
1.2

# get_value(readout='solubility kinetic', item= "O=C(NC(=O)c1ccccc1)Nc1ccccc1" )
1.2

# get_value(readout='solubility kinetic', item= "CC(=O)Nc1ccc(NC(=O)CSCc2ccccc2Cl)cc1" )
12.7

# get_value(readout='solubility kinetic', item= "Nc1cccc2c1C(=O)N(CCOc1ccc(F)cc1)C2=O" )
8.4

# get_value(readout='solubility kinetic', item= "COC(=O)c1ccccc1NC(=S)N(C)C" )
34.2

# get_value(readout='solubility kinetic', item= "COC(=O)c1ccc(C2Nc3cccc4cccc(c34)N2)cc1" )
3.5

# get_value(readout='solubility kinetic', item= "O=[N+]([O-])c1ccc(-c2nc(-c3ccncc3)no2)cc1" )
1.3

----------
Settings: buffer; pH 7.4; 200.0 µM
Each entry below lists one item and its recorded solubility kinetic value.
Provide only the numeric value, understood in µg/mL.

Please review the following examples before continuing.
# Molecule, solubility kinetic / µg/mL
data = [
    ("Cc1nccc(-c2cccc(NC(=O)Nc3ccc(Cl)cc3)c2)n1", 0.6),
    ("CCOc1ncccc1C(=O)NCCc1ccc(Cl)cc1", 33.7),
    ("CCOC(=O)CC(=O)Nc1ccsc1C(N)=O", 36.1),
    ("Brc1ccc(C2NCCS2)cc1 (stereo not given)", 29.3),
    ("CCN(CC)c1ccc(NC(=O)c2cc3c(OC)cccc3[nH]2)cc1", 0.5),
]

# get_value(readout='solubility kinetic', item= "COc1ccc(C(=O)COc2ccc(C)cc2NC(C)=O)cc1" )
36.7

# get_value(readout='solubility kinetic', item= "COc1nc(Nc2cccc(F)c2)nc(OC)n1" )
12.8

# get_value(readout='solubility kinetic', item= COc1ncnc2c1ncn2CC1COC(C)(C)O1 (stereo not given) )
34.9

# get_value(readout='solubility kinetic', item= "O=C(Nc1nc2ccccc2[nH]1)Nc1ccccc1F" )
3.3

# get_value(readout='solubility kinetic', item= "CCOc1ccc(OCC(=O)Nc2ccc(S(N)(=O)=O)cc2)cc1" )
7.1
